assay_system: Bromodomain-containing protein 3 (Homo sapiens)
measurement_protocol: Binding affinity to recombinant BRD3-ET domain (unknown origin) expressed in Escherichia coli Rosetta (DE3) pLysS assessed as dissociation constant by 19F- NMR analysis
Below: a set of entries, each annotated with reported Kd.
measurement_type: Kd (µM)

1. Fc1ccc2[nH]c3c(c2c1)CCCC3NCCC1CCCNC1 (stereo not drawn) :: 18
2. Fc1ccc2[nH]c3c(c2c1)CCCC3NCC1CCNCC1 (stereo not drawn) :: 22
3. Fc1ccc2[nH]c3c(c2c1)CCCC3NCC1CCNC1 (stereo not drawn) :: 68

###

assay_system: Bromodomain-containing protein 3 (Homo sapiens, UniProt Q15059)
Sequence (Q15059 whole entry, the tested form may be a part): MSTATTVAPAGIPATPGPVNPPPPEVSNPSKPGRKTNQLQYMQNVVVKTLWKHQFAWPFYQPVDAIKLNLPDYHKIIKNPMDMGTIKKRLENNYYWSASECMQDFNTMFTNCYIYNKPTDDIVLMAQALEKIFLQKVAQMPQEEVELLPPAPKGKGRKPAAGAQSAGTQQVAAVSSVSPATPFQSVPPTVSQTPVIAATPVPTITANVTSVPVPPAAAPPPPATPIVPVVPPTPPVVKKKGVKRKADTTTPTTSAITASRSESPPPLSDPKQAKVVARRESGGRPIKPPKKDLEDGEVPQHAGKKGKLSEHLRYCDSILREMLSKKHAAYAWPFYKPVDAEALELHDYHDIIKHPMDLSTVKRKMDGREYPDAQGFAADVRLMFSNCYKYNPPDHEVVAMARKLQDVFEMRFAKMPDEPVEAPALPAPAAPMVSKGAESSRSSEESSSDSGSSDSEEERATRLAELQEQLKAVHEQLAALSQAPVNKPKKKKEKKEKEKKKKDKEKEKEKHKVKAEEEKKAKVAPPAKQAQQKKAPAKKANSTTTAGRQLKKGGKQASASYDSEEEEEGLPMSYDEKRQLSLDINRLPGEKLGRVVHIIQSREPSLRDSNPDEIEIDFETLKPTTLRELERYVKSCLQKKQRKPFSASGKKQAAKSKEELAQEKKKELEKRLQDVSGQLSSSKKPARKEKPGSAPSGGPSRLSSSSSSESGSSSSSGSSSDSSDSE
measurement_protocol: Binding affinity to 15N-labeled recombinant BRD3-ET domain (unknown origin) expressed in Escherichia coli Rosetta (DE3) pLysS assessed as dissociation constant by […] HSQC NMR analysis
measurement_type: Kd (µM)

1) O=C(NC1CCCc2c1[nH]c1ccc(F)cc21)[C@@H]1C=CCN1 (stereo not given in full) :: 64
2) CC(C)(C)OC(=O)N1CCC(CNC2CCCc3c2[nH]c2ccc(F)cc32)CC1 (stereo not given) :: 31
3) CC(C)(C)OC(=O)N1CCC(CNC2CCCc3c2[nH]c2ccc(F)cc32)C1 (stereo not given) :: 30
4) OC1CCCc2c1[nH]c1ccccc21 (stereo not given) :: 230
5) CC(=O)NC1CCCc2c1[nH]c1ccc(F)cc21 (stereo not given) :: 150
